Readings of IC50 for the listed compounds
# measuredTarget: BACE2 (Rattus norvegicus (Rat))
# Sequence (Q6IE75 63-514): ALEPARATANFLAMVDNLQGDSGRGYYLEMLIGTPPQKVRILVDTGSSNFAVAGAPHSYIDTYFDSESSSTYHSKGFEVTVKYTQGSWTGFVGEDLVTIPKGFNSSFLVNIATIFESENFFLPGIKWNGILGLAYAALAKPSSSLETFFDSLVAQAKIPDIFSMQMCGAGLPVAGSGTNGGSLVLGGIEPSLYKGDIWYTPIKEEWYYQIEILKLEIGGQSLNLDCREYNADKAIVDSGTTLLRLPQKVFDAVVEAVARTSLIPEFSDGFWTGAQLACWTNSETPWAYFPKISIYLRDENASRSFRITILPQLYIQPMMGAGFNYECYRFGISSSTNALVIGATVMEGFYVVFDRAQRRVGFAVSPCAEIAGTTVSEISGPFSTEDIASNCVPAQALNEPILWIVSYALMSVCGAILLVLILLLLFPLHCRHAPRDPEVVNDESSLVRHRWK
# test: Assay for BACE inhibition by measuring cellular TMEM27 cleavage (INS-TMEM27 cells, ELISA)
# conditionNotes: INS-TMEM27 (INS1e-derived) cells; shed TMEM27 in supernatant; read-out: BACE2 cell act. IC50
measuredProperty: IC50

> print(dat)
                             compoundsmiles  assayresult
1     C[C@@]1(c2cc(NC3CCC3)ccc2F)COCC(N)=N1      1.17 µM
2  C[C@@]1(c2cc(Nc3cccc4cc(OC(F)F)cnc34)ccc2F)COCC(N)=N1       2.3 µM
3    C[C@@]1(c2cc(NC3CCCC3)ccc2F)COCC(N)=N1      0.17 µM

====

# measuredTarget: BACE2 (Rattus norvegicus (Rat))
# test: Assay for BACE inhibition by measuring cellular TMEM27 cleavage (INS-TMEM27 cells, ELISA)
# Format: cell-based
# conditionNotes: INS-TMEM27 (INS1e-derived) cells; shed TMEM27 in supernatant; read-out: BACE2 cell act. IC50
pIC50: −log10 of the molar value.
measuredProperty: pIC50

> print(dat)
                                   molecule  measuredproperty  assayresult
1  CC1(c2cccc(Nc3cccc4cc(Cl)cnc34)c2)COCC(N)=N1 (stereo not drawn)             pIC50         7.74
2  C[C@@]1(c2cc(Nc3cc(Cl)cc4cc(Cl)cnc34)ccc2F)COCC(N)=N1             pIC50         6.25
3  Cn1nc(Nc2ccc(F)c([C@@]3(C)COCC(N)=N3)c2)c2ccc(Cl)cc21             pIC50         5.83
4   CC(C)CCNc1ccc(F)c([C@]2(C)COCC(N)=N2)c1             pIC50         6.22
5  C[C@@]1(c2cc(Nc3cccc4cc(Cl)cnc34)ccc2F)COCC(N)=N1             pIC50         7.11
6  C[C@@]1(c2cc(NC3CCc4cc(Cl)cnc43)ccc2F)COCC(N)=N1 (stereo partly drawn)             pIC50         5.96
7  CC1(c2cccc(Nc3cccc4oc(C5CC5)nc34)c2)COCC(N)=N1 (stereo not drawn)             pIC50         6.52
8  C[C@@]1(c2cc(N[C@H]3CCC[C@@H]3O)ccc2F)COCC(N)=N1             pIC50         5.47
9  C[C@@]1(c2cc(N[C@H]3CCC[C@H]3O)ccc2F)COCC(N)=N1             pIC50         5.64

====

# measuredTarget: BACE2 (Rattus norvegicus (Rat))
# test: Assay for BACE inhibition by measuring cellular TMEM27 cleavage (INS-TMEM27 cells, ELISA)
# conditionNotes: INS-TMEM27 (INS1e-derived) cells; shed TMEM27 in supernatant; read-out: BACE2 cell act. IC50
pIC50: −log10 of the molar value.
Readings of pIC50 for the listed molecules
measuredProperty: pIC50

> print(dat)
                                   molecule  measuredproperty  assayresult
1  C[C@@]1(c2cc(Nc3ccccc3OCC(F)F)ccc2F)COCC(N)=N1 [Example 41]             pIC50         8.00
2  C[C@@]1(c2cc(NC[C@H]3CCCO3)ccc2F)COCC(N)=N1 [Example 22]             pIC50         5.61
3  C[C@@]1(c2cc(Nc3ccon3)ccc2F)COCC(N)=N1 [Example 33]             pIC50         5.92
4  C[C@@]1(c2cc(NC3CCOC3)ccc2F)COCC(N)=N1 (stereo partly drawn) [Example 18]             pIC50         5.47
5  C[C@@]1(c2cc(NCCC(F)(F)F)ccc2F)COCC(N)=N1 [Example 12]             pIC50         5.54
6  C[C@@]1(c2cc(NCC3CC3)ccc2F)COCC(N)=N1 [Example 21]             pIC50         6.55
7  CC(C)C(Nc1ccc(F)c([C@]2(C)COCC(N)=N2)c1)c1ccc(Cl)cn1 (stereo partly drawn) [Example 23]             pIC50         5.78
8  COc1cnc2c(Nc3cccc(C4(C)COCC(N)=N4)c3)cccc2c1 (stereo not drawn) [Example 37]             pIC50         6.92
9  C[C@]1(c2cc(NC3CCc4cc(Cl)ccc43)ccc2F)COCC(N)=N1 (stereo partly drawn) [Example 35]             pIC50         6.14

====

Readings of IC50 for the listed compounds
# measuredTarget: BACE1 (Homo sapiens (Human), UniProt P56817)
# Sequence (P56817 46-501): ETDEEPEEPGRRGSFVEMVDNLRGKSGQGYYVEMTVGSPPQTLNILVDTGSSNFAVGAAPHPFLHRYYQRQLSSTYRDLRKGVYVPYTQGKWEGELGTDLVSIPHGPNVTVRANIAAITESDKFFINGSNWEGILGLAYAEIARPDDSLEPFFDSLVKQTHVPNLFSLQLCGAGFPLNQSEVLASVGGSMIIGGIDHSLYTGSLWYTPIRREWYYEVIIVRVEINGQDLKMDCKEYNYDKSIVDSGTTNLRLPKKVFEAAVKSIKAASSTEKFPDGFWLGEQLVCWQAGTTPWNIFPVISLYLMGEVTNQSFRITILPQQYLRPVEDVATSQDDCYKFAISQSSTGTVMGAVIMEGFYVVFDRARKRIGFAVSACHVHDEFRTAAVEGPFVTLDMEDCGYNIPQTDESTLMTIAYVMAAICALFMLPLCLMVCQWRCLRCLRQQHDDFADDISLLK
# test: Cellular Aβ-lowering assay (Aβ40 ELISA, HEK293 cells expressing human APP695)
# conditionNotes: HEK293 cells stably transfected with human APP695; 18-20 hrs incubation; Aβ40 in supernatant; read-out: BACE1 cell act. Aβ40 IC50
measuredProperty: IC50 (nM)

> print(dat)
                                    compound                            measuredtarget  assayresult
 1    C[C@@]1(c2cc(NC3CCCC3)ccc2F)COCC(N)=N1  BACE1 (Homo sapiens (Human), UniProt P56817)          120
 2     CSCCCNc1ccc(F)c([C@]2(C)COCC(N)=N2)c1  BACE1 (Homo sapiens (Human), UniProt P56817)          310
 3  C[C@@]1(c2cc(NC[C@H]3CCCO3)ccc2F)COCC(N)=N1  BACE1 (Homo sapiens (Human), UniProt P56817)         1110
 4  C[C@@]1(c2cc(N[C@H]3CCC[C@@H]3O)ccc2F)COCC(N)=N1  BACE1 (Homo sapiens (Human), UniProt P56817)         1210
 5  C[C@@]1(c2cc(Nc3cccc4cc(OC(F)F)cnc34)ccc2F)COCC(N)=N1  BACE1 (Homo sapiens (Human), UniProt P56817)          270
 6   CC(C)CCNc1ccc(F)c([C@]2(C)COCC(N)=N2)c1  BACE1 (Homo sapiens (Human), UniProt P56817)         1360
 7  CC(C)C(Nc1ccc(F)c([C@]2(C)COCC(N)=N2)c1)c1ccc(Cl)cn1 (stereo partly drawn)  BACE1 (Homo sapiens (Human), UniProt P56817)         3710
 8  C[C@@]1(c2cc(Nc3cc(Cl)cc4cc(Cl)cnc34)ccc2F)COCC(N)=N1  BACE1 (Homo sapiens (Human), UniProt P56817)          660
 9    C[C@@]1(c2cc(Nc3ccon3)ccc2F)COCC(N)=N1  BACE1 (Homo sapiens (Human), UniProt P56817)          580
10  C[C@]1(c2cc(NC3CCc4cc(Cl)ccc43)ccc2F)COCC(N)=N1 (stereo partly drawn)  BACE1 (Homo sapiens (Human), UniProt P56817)          100
11  C[C@@]1(c2cc(Nc3cccc4cc(OCCF)cnc34)ccc2F)COCC(N)=N1  BACE1 (Homo sapiens (Human), UniProt P56817)         4770
12     C[C@@]1(c2cc(NCC(F)F)ccc2F)COCC(N)=N1  BACE1 (Homo sapiens (Human), UniProt P56817)          410
13  C[C@@]1(c2cc(NC3CCc4cc(Cl)cnc43)ccc2F)COCC(N)=N1 (stereo partly drawn)  BACE1 (Homo sapiens (Human), UniProt P56817)          320
14  C[C@@]1(c2cc(Nc3cccc4cc(OCC(F)(F)F)cnc34)ccc2F)COCC(N)=N1  BACE1 (Homo sapiens (Human), UniProt P56817)         2360
15  C[C@@]1(c2cc(Nc3ccccc3OCC(F)F)ccc2F)COCC(N)=N1  BACE1 (Homo sapiens (Human), UniProt P56817)         2140

====

# measuredTarget: BACE1 (Homo sapiens (Human))
# test: Cellular Aβ-lowering assay (Aβ40 ELISA, HEK293 cells expressing human APP695)
# conditionNotes: HEK293 cells stably transfected with human APP695; 18-20 hrs incubation; Aβ40 in supernatant; read-out: BACE1 cell act. Aβ40 IC50
measuredProperty: IC50

> print(dat)
                                    molecule                measuredtarget  measuredproperty  assayresult
 1  CC1(c2cccc(NC3CCc4cc(Cl)ccc43)c2)COCC(N)=N1 (stereo not shown)  BACE1 (Homo sapiens (Human))              IC50       180 nM
 2     C[C@@]1(c2cc(NC3CCC3)ccc2F)COCC(N)=N1  BACE1 (Homo sapiens (Human))              IC50       260 nM
 3  C[C@@]1(c2cc(Nc3cc(F)cc4cc(Cl)cnc34)ccc2F)COCC(N)=N1  BACE1 (Homo sapiens (Human))              IC50        44 nM
 4  C[C@@]1(c2cc(NCc3nn(C(F)F)cc3Cl)ccc2F)COCC(N)=N1  BACE1 (Homo sapiens (Human))              IC50        17 nM
 5  C[C@@]1(c2cc(Nc3ccccc3OCC(F)(F)F)ccc2F)COCC(N)=N1  BACE1 (Homo sapiens (Human))              IC50      5200 nM
 6  CC1(c2cccc(NCc3ccc(Cl)cc3)c2)COCC(N)=N1 (stereo not shown)  BACE1 (Homo sapiens (Human))              IC50       450 nM
 7  CC1(c2cccc(Nc3ccccc3OC(F)F)c2)COCC(N)=N1 (stereo not shown)  BACE1 (Homo sapiens (Human))              IC50       890 nM
 8  Cn1nc(Nc2ccc(F)c([C@@]3(C)COCC(N)=N3)c2)c2ccc(Cl)cc21  BACE1 (Homo sapiens (Human))              IC50      1040 nM
 9  C[C@@]1(c2cc(NC3CCOC3)ccc2F)COCC(N)=N1 (stereo partly shown)  BACE1 (Homo sapiens (Human))              IC50       320 nM
10      CCCCNc1ccc(F)c([C@]2(C)COCC(N)=N2)c1  BACE1 (Homo sapiens (Human))              IC50       340 nM
11  C[C@@]1(c2cc(N[C@H]3CCC[C@H]3O)ccc2F)COCC(N)=N1  BACE1 (Homo sapiens (Human))              IC50       610 nM
12  C[C@@]1(c2cc(Nc3cc(F)cc4cc(OCC5CC5)cnc34)ccc2F)COCC(N)=N1  BACE1 (Homo sapiens (Human))              IC50      6900 nM
13  C[C@@]1(c2cc(Nc3cccc4cc(Cl)cnc34)ccc2F)COCC(N)=N1  BACE1 (Homo sapiens (Human))              IC50       160 nM
14  CC(C)C(C)Nc1ccc(F)c([C@]2(C)COCC(N)=N2)c1 (stereo partly shown)  BACE1 (Homo sapiens (Human))              IC50      2190 nM
15  C[C@@]1(c2cc(NCCC(F)(F)F)ccc2F)COCC(N)=N1  BACE1 (Homo sapiens (Human))              IC50      1090 nM
16  C[C@@]1(c2cc(NCC(F)(F)F)ccc2F)COCC(N)=N1  BACE1 (Homo sapiens (Human))              IC50       350 nM
17  CC1(c2cccc(Nc3cccc4cc(Cl)cnc34)c2)COCC(N)=N1 (stereo not shown)  BACE1 (Homo sapiens (Human))              IC50       250 nM
18     C[C@@]1(c2cc(NCC3CC3)ccc2F)COCC(N)=N1  BACE1 (Homo sapiens (Human))              IC50       130 nM
19  CC1(c2cccc(Nc3cc(F)cc4cc(Cl)cnc34)c2)COCC(N)=N1 (stereo not shown)  BACE1 (Homo sapiens (Human))              IC50       250 nM
